# Tested on: Vesicular stomatitis virus
# Assay Explanation: Antiviral activity against VSV in human HEL cells assessed as protection against virus-induced cytopathicity
# Assay type: functional, organism-based
pEC50: −log10 of the molar value.
Value Type: pEC50

Value sought for every listed compound: pEC50.
1. Nc1nc2c(ncn2COC(CO)CO)c(=O)[nH]1 [GANCICLOVIR]
2. Cc1cc(C)cc(S(=O)(=O)c2c(C(=O)NCCC(N)=O)[nH]c3ccc(Cl)cc23)c1
3. Cc1cc(C)cc(S(=O)(=O)c2c(C(=O)NC(C)C(N)=O)[nH]c3ccc(Cl)cc23)c1 (stereo not given)
4. Cc1cc(C)cc(S(=O)(=O)c2c(C(=O)NCCS(N)(=O)=O)[nH]c3ccc(Br)cc23)c1
5. Cc1cc(C)cc(S(=O)(=O)c2c(C(=O)NCCS(N)(=O)=O)[nH]c3ccc([N+](=O)[O-])cc23)c1

1: < 4.00; 2: < 5.40; 3: < 4.00; 4: < 5.40; 5: < 5.40

Value sought for every listed compound: pEC50.
1. Cc1cc(C)cc(S(=O)(=O)c2c(C(=O)NCCC(N)=O)[nH]c3ccc(Cl)c(F)c23)c1
2. Cc1cc(C)cc(S(=O)(=O)c2c(C(=O)NC(C)CS(N)(=O)=O)[nH]c3ccc(Br)cc23)c1 (stereo not given)
3. Cc1cc(C)cc(S(=O)(=O)c2c(C(=O)NCC(N)=O)[nH]c3ccc(Br)cc23)c1

["< 4.70", "< 5.40", "< 4.70"]

Value sought for every listed compound: pEC50.
1. Cc1cc(C)cc(S(=O)(=O)c2c(C(=O)NC(C)CC(N)=O)[nH]c3ccc(Br)cc23)c1 (stereo not given)
2. Nc1ccn(C[C@@H](CO)OCP(=O)(O)O)c(=O)n1 [CIDOFOVIR]

["< 5.40", "< 3.60"]
